# maps each entry to its AC50
- MEASURED TARGET: 3',5'-cyclic-AMP phosphodiesterase 4D (Homo sapiens, UniProt Q08499); note: assay procedure not described here
- Sequence (Q08499 whole entry): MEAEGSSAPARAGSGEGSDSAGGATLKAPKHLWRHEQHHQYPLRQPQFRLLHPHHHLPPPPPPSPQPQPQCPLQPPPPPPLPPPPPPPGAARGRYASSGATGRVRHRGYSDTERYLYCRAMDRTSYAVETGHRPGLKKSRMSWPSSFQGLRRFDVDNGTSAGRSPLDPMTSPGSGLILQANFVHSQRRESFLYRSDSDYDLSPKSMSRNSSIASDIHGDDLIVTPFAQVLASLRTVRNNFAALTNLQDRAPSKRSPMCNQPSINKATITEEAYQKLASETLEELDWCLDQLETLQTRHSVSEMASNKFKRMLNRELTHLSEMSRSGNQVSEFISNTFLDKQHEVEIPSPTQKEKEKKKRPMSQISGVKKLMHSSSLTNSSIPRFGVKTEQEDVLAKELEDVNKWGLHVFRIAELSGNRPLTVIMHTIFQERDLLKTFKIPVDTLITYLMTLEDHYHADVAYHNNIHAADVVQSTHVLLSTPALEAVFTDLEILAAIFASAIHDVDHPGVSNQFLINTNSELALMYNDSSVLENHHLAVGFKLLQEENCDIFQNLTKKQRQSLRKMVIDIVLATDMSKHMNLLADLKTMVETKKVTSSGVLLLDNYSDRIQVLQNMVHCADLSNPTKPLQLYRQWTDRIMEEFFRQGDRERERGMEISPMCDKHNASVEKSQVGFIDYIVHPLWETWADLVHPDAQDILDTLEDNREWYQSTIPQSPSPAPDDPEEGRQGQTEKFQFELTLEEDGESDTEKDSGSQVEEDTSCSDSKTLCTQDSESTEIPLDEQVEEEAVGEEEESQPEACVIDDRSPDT
- Type: functional

These recorded examples may help you get a feel for the data.
INSERT INTO results (molecule, measured_endpoint, result) VALUES
  ('CCn1c(=O)c2c(nc(/C=C/c3ccc(OC)c(OC)c3)n2C)n(CC)c1=O', 'AC50', '1.8 µM'),
  ('Nc1nc(Cl)nc2c1ncn2[C@@H]1O[C@H](CO)[C@@H](O)[C@@H]1F', 'AC50', '0.17 µM');

### Prompt Request the reported AC50 associated with O=C1CN=C(c2ccccc2Cl)c2cc([N+](=O)[O-])ccc2N1
### Response > 30 µM

### Prompt Request the reported AC50 associated with COc1cc2c(cc1OC)C1CC(=O)C(CC(C)C)CN1CC2 (stereo not drawn)
### Response > 30 µM

### Prompt Request the reported AC50 associated with CN1CCC(=C2c3ccccc3CC(=O)c3sccc32)CC1
### Response > 30 µM

### Prompt Request the reported AC50 associated with C[C@]12C=CC(=O)C=C1CC[C@@H]1[C@@H]2[C@@H](O)C[C@@]2(C)[C@H]1CC[C@]2(O)C(=O)CO
### Response > 30 µM

### Prompt Request the reported AC50 associated with Cc1c(C)c2c(c(C)c1O)CCC(C)(COc1ccc(CC3SC(=O)NC3=O)cc1)O2 (stereo not drawn)
### Response 2.88 µM

### Prompt Request the reported AC50 associated with O=C(O)c1nn(Cc2ccc(Cl)cc2Cl)c2ccccc12
### Response > 30 µM

### Prompt Request the reported AC50 associated with CCOc1ccccc1OCCN[C@H](C)Cc1ccc(OC)c(S(N)(=O)=O)c1
### Response > 30 µM

---

# maps each entry to its AC50
- MEASURED TARGET: Alpha-1A adrenergic receptor (Homo sapiens, UniProt P35348); note: assay procedure not described here
- Sequence (P35348 whole entry): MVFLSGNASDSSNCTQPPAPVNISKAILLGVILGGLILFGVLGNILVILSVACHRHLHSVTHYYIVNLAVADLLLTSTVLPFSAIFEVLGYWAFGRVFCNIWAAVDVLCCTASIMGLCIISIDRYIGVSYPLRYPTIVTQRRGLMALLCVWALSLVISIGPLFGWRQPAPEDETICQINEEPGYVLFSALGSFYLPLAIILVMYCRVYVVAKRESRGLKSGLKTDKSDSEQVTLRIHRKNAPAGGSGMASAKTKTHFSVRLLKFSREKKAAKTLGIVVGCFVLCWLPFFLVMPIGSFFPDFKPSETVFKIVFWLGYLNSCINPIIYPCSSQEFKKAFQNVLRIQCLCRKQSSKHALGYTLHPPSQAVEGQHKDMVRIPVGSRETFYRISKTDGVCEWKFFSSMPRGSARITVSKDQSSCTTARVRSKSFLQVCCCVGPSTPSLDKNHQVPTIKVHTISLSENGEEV
- Assay type: functional, cell-based

These recorded examples may help you get a feel for the data.
INSERT INTO results (compound, result) VALUES
  ('CC(C)(Oc1ccc(C(=O)c2ccc(Cl)cc2)cc1)C(=O)O [FENOFIBRIC ACID]', '> 30 µM'),
  ('CNC(=O)c1cnn(-c2nc(N)c3ncn([C@@H]4O[C@H](CO)[C@@H](O)[C@H]4O)c3n2)c1 [REGADENOSON ANHYDROUS]', '28.2 µM'),
  ('O=C1Nc2ccccc2C1(c1ccc(O)cc1)c1ccc(O)cc1 [OXYPHENISATINE]', '> 30 µM'),
  ('NC(=O)C1(N2CCCCC2)CCN(CCCN2c3ccccc3CCc3ccccc32)CC1 [CARPIPRAMINE]', '13.7 µM'),
  ('CC(C)Cc1ccc(C(C)C(=O)OCc2ccccn2)cc1 (configuration not stated) [IBUPROFEN PICONOL]', '> 30 µM'),
  ('CC(C)(Oc1ccc(Cl)cc1)C(=O)NC(=O)NCN1CCOCC1 [PLAFIBRIDE]', '> 30 µM'),
  ('CN1C(C(=O)Nc2ccccn2)=C(OC(=O)/C=C/c2ccccc2)c2ccccc2S1(=O)=O [PIROXICAM CINNAMATE]', '> 30 µM'),
  ('COc1cccc2c1C(=O)c1c(O)c3c(c(O)c1C2=O)C[C@@](O)(C(=O)CO)C[C@@H]3O[C@H]1C[C@H](N)[C@@H](O)[C@H](C)O1 [EPIRUBICIN]', '8.86 µM'),
  ('NC(=O)C1(N2CCCCC2)CCN(CCCC(=O)c2ccc(F)cc2)CC1 [PIPAMPERONE]', '> 30 µM'),
  ('CCOC(=O)[C@H](CCc1ccccc1)N[C@@H](C)C(=O)N1Cc2ccccc2C[C@H]1C(=O)O', '> 30 µM');

### Prompt Request the reported AC50 associated with O=C(OOC(=O)c1ccccc1)c1ccccc1 [BENZOYL PEROXIDE]
### Response > 30 µM

### Prompt Request the reported AC50 associated with CCOc1ccc(Cc2nccc3cc(OCC)c(OCC)cc23)cc1OCC [ETHAVERINE]
### Response > 30 µM

### Prompt Request the reported AC50 associated with N#Cc1ccnc(N2C(=O)CC[C@H]2C(=O)N(c2cncc(F)c2)[C@H](C(=O)NC2CC(F)(F)C2)c2ccccc2Cl)c1 [IVOSIDENIB]
### Response > 30 µM

### Prompt Request the reported AC50 associated with N[C@@H](Cc1ccc(N(CCCl)CCCl)cc1)C(=O)O
### Response > 30 µM

### Prompt Request the reported AC50 associated with CC(=O)Oc1ccccc1C(=O)O [ASPIRIN]
### Response > 30 µM

### Prompt Request the reported AC50 associated with CC(=O)O[C@]1(C(C)=O)CC[C@H]2[C@@H]3CCC4=CC(=O)CCC4=C3[C@@H](c3ccc(N(C)C)cc3)C[C@@]21C [ULIPRISTAL ACETATE]
### Response > 30 µM

### Prompt Request the reported AC50 associated with NCC1(CC(=O)O)CCCCC1 [GABAPENTIN]
### Response > 30 µM
